test system: HCC-2998 colon; assay: NCI-60 one-dose screen, 48 h (100 = growth as untreated, 0 = no growth, -100 = all killed); conditions: 10 µM unless noted
About 83,000 compounds went through this panel and 20% of them were active in at least one assay; those are over-represented in the sample as a whole.
Please enter 1 (yes) where growth is greater than or equal to 50%, and 0 (no) where it is lower.

CN1CCN(c2ccc3c4c(cccc24)C(=O)N(c2cccc(-c4nn(-c5ccccc5)cc4-c4nc5ccccc5s4)c2)C3=O)CC1 = 1 (yes)
COc1ccc2[nH]c(=O)c(CSc3ccccc3Nc3nccc(-c4ccc5c(c4)OCO5)n3)cc2c1 = 1 (yes)
Clc1ccc(-c2nc3c4c(-c5ccccc5)c(-c5ccccc5)n(Cc5ccccc5)c4ncn3n2)cc1 = 0 (no)
NC(=Nc1ccc(OCCCCCCCCn2cnnn2)cc1)c1ccccc1 = 0 (no)
Nc1nn2c(-c3cc4cc(Br)ccc4oc3=O)ccnc2c1N=Nc1ccc(Br)cc1 = 0 (no)

q: Hello, I need to know if Oc1cncc(-c2ccc3ncnc(N4CCc5cc(F)c(Cl)cc54)c3c2)c1 has measured growth not below 50%. Thanks!
a: 1 (yes)

q: Also need NS(=O)(=O)c1cccc(Nc2nc(SCC(=O)c3ccc(F)cc3)nc3ccccc23)c1 , thanks.
a: 0 (no)

q: What do you get for CN1CCN(C(=O)Oc2cc3c(c4ccccc24)[C@H](CCl)CN3C(=O)c2cc3cc(OCCCN4CCC4)ccc3[nH]2)[C@@H]2CSSC[C@H]21 ?
a: 0 (no)

q: Request: CCC1(OC(=O)c2ccccc2SSCCOC(=O)CCCCC2SCC3NC(=O)NC32)C(=O)OCc2c1cc1n(c2=O)Cc2cc3ccccc3nc2-1 (centres undefined)
a: 1 (yes)

###

Tested on: SR leukemia
Assay: NCI-60 one-dose screen, 48 h (100 = growth as untreated, 0 = no growth, -100 = all killed)
Conditions: 10 µM unless noted
Method: Growth inhibition of the SR human tumor cell line is measured as a screen for anti-cancer activity. Cells are grown in 96 well plates and exposed to the test compound for 48 hours. Compounds are tested at a single concentration, which is 10^-5 M for most compounds. The reported endpoint is percent growth (GI% or GIPRCNT), where numbers from 0 - 100% represent growth inhibition, and numbers from -100% - 0 represent cell death. For example, a value of 40 represents 60% growth inhibition. […]
The panel holds about 83,000 compounds, 20% with a hit somewhere; the sample as a whole holds those more often.
The label is T for growth below 80% and F for growth equal to or exceeding 80%.

See these solved cases before continuing.
N#Cc1cc(-c2ccnc(Nc3ccc(N4CCN(C5COC5)CC4)cc3)n2)ccc1N1CCCC1 = T
CN1CCN(CCS(=O)(=O)Nc2cc(-c3ccc4ncnc(Nc5ccc(F)c(Cl)c5)c4c3)cnc2Cl)CC1 = T
CCCSc1nnc(-c2c(C)nc3sccn23)o1 = F

Query compound follows.
q: Given the entry COc1ccc(Nc2ncnc3sc4c(c23)CCN(Cc2ccccc2)C4)cc1 , would its reported growth be below 80%?
a: F

###

system: OVCAR-5 ovarian; experiment: NCI-60 one-dose screen, 48 h; details: 10 µM unless noted
Compounds without any hit were thinned out: in the full panel of roughly 83,000, 20% have a hit. Active and inactive are the calls of the source. The calls were made as follows: active = growth percent below 10; inactive = the rest.
Answer with one of the outcomes given here: active, inactive

Worked examples, 3 compounds total:
COc1c2c(cc3c1C(CCc1ccccc1)N(C)CC3)OCO2 (stereo not given) = inactive
CC(C)CN1C(=O)/C(=C\C(=O)c2cc3ccccc3oc2=O)c2ccccc21 = inactive
COc1cccc(-c2ccc(/C=N/NC(=O)c3[nH]c4ccc(Br)cc4c3-c3ccccc3)s2)c1 = active

q: Field: outcome | Entry: O=C(CSc1nnc(-c2ccc(-c3nc4ccc(Cl)cc4[nH]3)cc2)o1)Nc1ccc(Cl)cc1
a: inactive

q: Okay, and COC(=O)c1c(C(=O)OC)c2c3ccccc3c3ccccc3n2c1C(=O)C(F)(F)F ?
a: inactive

q: Also O=C(c1ccc(O)cc1)C1[C@H](c2ccccc2Br)[C@@H](c2ccccc2)NC12C(=O)Nc1ccccc12 (stereo not given in full) ?
a: inactive

q: Follow-up entry: Cc1ccc(C(C)C)cc1Oc1cccc(-c2c(-c3ccc(C(F)(F)F)cc3)ncn2C2CCNCC2)n1
a: active
